The origin of these recorded values is patent US20240209076A1.

Provide the recorded kon for the entries that follow.
# targetSystem: T1, human IL-6 (human, UniProt P05231 30-212)
# T1 construct: IL-6 flowed over captured antibodies
# T1 sequence (P05231 30-212 limits assumed): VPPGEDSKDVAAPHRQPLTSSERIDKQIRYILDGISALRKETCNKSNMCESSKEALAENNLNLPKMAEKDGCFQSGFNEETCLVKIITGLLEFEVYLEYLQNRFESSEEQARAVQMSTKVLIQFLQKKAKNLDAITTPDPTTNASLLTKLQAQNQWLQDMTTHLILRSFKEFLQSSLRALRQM
# methodDescription: SPR Biacore, supernatant Ab on Protein A chip, 37 C
Note to self: number, then unit, no commentary.

The binder anti-IL-6 antibody, heavy chain T63S, G66D / light chain M32L, M50D, N52S, M88Q (antibody, IgG1, V domains shown, Full IgG1 (Expi293); VL = variant III) VH: EVQLVESGGGLVQPGGSLRLSCAASGFTFSPFAMSWVRQAPGKGLEWVAKISPGGSWTYYSDSVTDRFTFSLDTSKSTAYLQMNSLRAEDTAVYYCARQLWGYYALDIWGQGTLVTVSS VL: DIQLTQSPSSLSASVGDRVTITCSASISVSYLYWYQQKPGKAPKLLIYDDSSLASGVPSRFSGSGSGTDFTLTISSLQPEDFATYYCQQWSGYPYTFGQGTKVEIK showed kon equal to 1.8e+06 M⁻¹ s⁻¹

The binder anti-IL-6 antibody, heavy chain S35L, G66D / light chain M32L, M50D, N52S, M88Q (antibody, IgG1, V domains shown, Full IgG1 (Expi293); VL = variant III) VH: EVQLVESGGGLVQPGGSLRLSCAASGFTFSPFAMLWVRQAPGKGLEWVAKISPGGSWTYYSDTVTDRFTFSLDTSKSTAYLQMNSLRAEDTAVYYCARQLWGYYALDIWGQGTLVTVSS VL: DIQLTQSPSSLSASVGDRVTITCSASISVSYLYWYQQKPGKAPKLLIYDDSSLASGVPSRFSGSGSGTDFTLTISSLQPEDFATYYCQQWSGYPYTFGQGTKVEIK showed kon equal to 942000 M⁻¹ s⁻¹
